# assayExplanation: log P by HPLC on reversed phase columns (EEC directive 79/831 Annex V.A8)
# Assay type: physicochemical
# statedConditions: reversed phase HPLC columns, pH 2.7, acid; product isolated with a purity of 87% LC-MS; read-out: log P (acid)

compound | chromatographic logP
Cn1nc(C(F)F)c(C(=O)NC2CCCCC2C2CC2C2CC2)c1F (single isomer, unassigned) [Example 1] | 4.02
